target.desc: MAO-B (Homo sapiens, UniProt P27338)
Sequence (P27338 1-520): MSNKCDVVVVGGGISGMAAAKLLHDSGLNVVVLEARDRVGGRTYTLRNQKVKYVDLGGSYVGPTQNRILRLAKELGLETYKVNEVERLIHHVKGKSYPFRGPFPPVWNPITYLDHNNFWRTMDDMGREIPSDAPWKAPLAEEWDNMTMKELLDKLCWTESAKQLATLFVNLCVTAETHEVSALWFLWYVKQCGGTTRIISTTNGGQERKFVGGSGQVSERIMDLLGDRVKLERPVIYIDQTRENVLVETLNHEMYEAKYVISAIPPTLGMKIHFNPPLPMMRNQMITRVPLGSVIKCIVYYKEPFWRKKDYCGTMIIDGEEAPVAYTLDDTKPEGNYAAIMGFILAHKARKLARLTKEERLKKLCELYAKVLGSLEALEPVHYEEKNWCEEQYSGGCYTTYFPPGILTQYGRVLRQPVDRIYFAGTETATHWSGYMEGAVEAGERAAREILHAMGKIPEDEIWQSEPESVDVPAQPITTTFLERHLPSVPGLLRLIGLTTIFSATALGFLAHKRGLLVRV
method.description: biochemical
assay.setup: MAO-B, IC50, Table 1; mean ± SEM, eight-point experiments, three independent experiments
pIC50: −log10 of the molar value.
measurement.kind: pIC50

COc1ncccc1CN[C@H]1CC12CCc1ccccc12 (stereo in doubt) [Compound 22b]: 4.17
COc1ccc(Br)cc1CN[C@H]1CC12CCc1ccccc12 (stereo in doubt) [Compound 16b]: 5.11
COc1ncccc1CN[C@@H]1CC12CCc1ccccc12 (stereo in doubt) [Compound 22a]: 4.33
COc1ccc(F)cc1CN[C@@H]1CC12CCc1ccccc12 (stereo in doubt) [Compound 17a]: 5.64
Fc1ncccc1CN[C@H]1CC12CCc1ccccc12 (stereo in doubt) [Compound 23b]: 4.54
Fc1ncccc1CN[C@@H]1CC12CCc1ccccc12 (mixture of isomers) [Compound 23a]: 5.09
COc1cc(F)ccc1CN[C@@H]1CC12CCc1ccccc12 (stereo in doubt) [Compound 18a]: 5.06
COc1ccccc1CN[C@@H]1CC12CCc1ccccc12 (stereo in doubt) [Compound 14a]: 4.92
COc1ccc(CNC2CC23CCc2ccccc23)cc1OC (stereo not shown) [Compound 19b]: 4.57
c1cncc(CN[C@@H]2CC23CCc2ccccc23)c1 (mixture of isomers) [Compound 21a]: 4.82
COc1ccc(CN[C@H]2CC23CCc2ccccc23)c(Cl)c1OC (stereo in doubt) [Compound 20b]: 5.15
COc1ccc(CN[C@@H]2CC23CCc2ccccc23)c(Cl)c1OC (stereo in doubt) [Compound 20a]: 4.70
COc1ccc(F)cc1CN[C@H]1CC12CCc1ccccc12 (stereo in doubt) [Compound 17b]: 4.57

----------
Reported IC50 by item:
target.desc: full-length LSD2 (Homo sapiens, UniProt Q8NB78)
Sequence (Q8NB78 1-822): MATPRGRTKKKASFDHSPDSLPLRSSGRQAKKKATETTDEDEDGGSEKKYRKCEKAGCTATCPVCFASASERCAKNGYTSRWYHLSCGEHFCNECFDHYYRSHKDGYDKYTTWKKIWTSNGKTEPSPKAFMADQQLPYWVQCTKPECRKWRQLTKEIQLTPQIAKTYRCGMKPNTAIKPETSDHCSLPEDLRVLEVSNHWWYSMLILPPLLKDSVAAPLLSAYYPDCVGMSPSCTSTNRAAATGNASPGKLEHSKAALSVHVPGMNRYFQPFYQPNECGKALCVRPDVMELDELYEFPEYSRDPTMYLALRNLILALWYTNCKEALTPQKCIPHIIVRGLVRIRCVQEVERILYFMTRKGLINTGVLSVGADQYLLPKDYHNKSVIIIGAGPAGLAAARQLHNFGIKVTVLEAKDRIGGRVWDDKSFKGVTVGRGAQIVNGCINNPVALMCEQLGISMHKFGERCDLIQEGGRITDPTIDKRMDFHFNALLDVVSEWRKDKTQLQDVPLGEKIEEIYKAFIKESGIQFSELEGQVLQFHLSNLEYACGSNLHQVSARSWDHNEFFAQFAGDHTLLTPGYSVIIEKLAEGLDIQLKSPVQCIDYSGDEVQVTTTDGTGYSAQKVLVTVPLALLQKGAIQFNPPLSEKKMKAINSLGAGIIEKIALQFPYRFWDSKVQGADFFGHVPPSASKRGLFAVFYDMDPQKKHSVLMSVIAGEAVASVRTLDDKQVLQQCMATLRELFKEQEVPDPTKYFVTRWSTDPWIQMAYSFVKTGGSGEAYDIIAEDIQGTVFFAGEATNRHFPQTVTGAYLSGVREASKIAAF
measurement.kind: IC50 (µM)

N[C@@H]1CC12CCc1cc(-c3ccccc3)ccc12 (stereo in doubt) [Compound 28a]: 94
Fc1ncccc1CN[C@H]1CC12CCc1ccccc12 (stereo in doubt) [Compound 23b]: 8.7
COc1ccc(F)cc1CN[C@@H]1CC12CCc1ccccc12 (stereo in doubt) [Compound 17a]: 0.8
COc1cc(F)ccc1CN[C@@H]1CC12CCc1ccccc12 (stereo in doubt) [Compound 18a]: 0.66

----------
Reported pIC50 by item:
target.desc: Recombinant human LSD1 (172–852 aa) (Homo sapiens)
method.description: biochemical
pIC50: −log10 of the molar value.
measurement.kind: pIC50

N[C@H]1CC12CCc1cc(-c3ccccc3)ccc12 (stereo in doubt) [Compound 28b]: 5.57
COc1ncccc1CN[C@@H]1CC12CCc1ccccc12 (stereo in doubt) [Compound 22a]: 7.49
Cl.N[C@@H]1CC12CCc1cc(-c3ccc(F)cc3)ccc12 (stereo in doubt) [Compound 29a]: 6.52

----------
target.desc: UniProt P27338
method.description: biochemical
assay.setup: MAO-B, IC50, Table 1; mean ± SEM, eight-point experiments, three independent experiments
Reported IC50 by item:
measurement.kind: IC50 (µM)

c1ccc(CN[C@H]2CC23CCc2ccccc23)cc1 (stereo in doubt) [Compound 13b]: 5.1
Fc1ccccc1CN[C@@H]1CC12CCc1ccccc12 (mixture of isomers) [Compound 15a]: 9.8
COc1ccc(Br)cc1CN[C@@H]1CC12CCc1ccccc12 (stereo in doubt) [Compound 16a]: 1.2
Fc1ccccc1CN[C@H]1CC12CCc1ccccc12 (stereo in doubt) [Compound 15b]: 32
COc1ccccc1CN[C@H]1CC12CCc1ccccc12 (stereo in doubt) [Compound 14b]: 70

----------
Reported pIC50 by item:
target.desc: MAO-A (Homo sapiens, UniProt P21397)
Sequence (P21397 1-527): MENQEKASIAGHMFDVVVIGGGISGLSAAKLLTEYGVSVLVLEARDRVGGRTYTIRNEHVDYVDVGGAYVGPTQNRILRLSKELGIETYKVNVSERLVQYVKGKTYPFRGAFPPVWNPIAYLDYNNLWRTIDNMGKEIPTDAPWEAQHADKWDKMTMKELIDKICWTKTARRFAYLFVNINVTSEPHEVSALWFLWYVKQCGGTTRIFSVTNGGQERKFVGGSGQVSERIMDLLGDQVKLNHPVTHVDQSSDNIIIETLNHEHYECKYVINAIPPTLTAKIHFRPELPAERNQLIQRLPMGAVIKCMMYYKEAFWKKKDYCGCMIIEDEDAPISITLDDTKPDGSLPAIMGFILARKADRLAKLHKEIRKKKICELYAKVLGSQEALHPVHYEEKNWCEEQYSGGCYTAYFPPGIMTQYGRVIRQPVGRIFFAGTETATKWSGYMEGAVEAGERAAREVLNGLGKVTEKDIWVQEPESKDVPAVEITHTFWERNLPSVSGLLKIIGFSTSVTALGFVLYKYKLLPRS
method.description: biochemical
assay.setup: MAO-A, IC50, Table 1; mean ± SEM, eight-point experiments, three independent experiments
pIC50: −log10 of the molar value.
measurement.kind: pIC50

COc1cc(F)ccc1CN[C@H]1CC12CCc1ccccc12 (stereo in doubt) [Compound 18b]: 7.05
COc1ccc(Br)cc1CN[C@@H]1CC12CCc1ccccc12 (stereo in doubt) [Compound 16a]: 5.43
Fc1ncccc1CN[C@H]1CC12CCc1ccccc12 (stereo in doubt) [Compound 23b]: 5.01
COc1ccc(CN[C@@H]2CC23CCc2ccccc23)c(Cl)c1OC (stereo in doubt) [Compound 20a]: 5.85
COc1ccc(CNC2CC23CCc2ccccc23)cc1OC (centres unmarked) [Compound 19b]: 5.51

----------
Reported pIC50 by item:
target.desc: MAO-A (Homo sapiens)
method.description: biochemical
assay.setup: MAO-A, IC50, Table 1; mean ± SEM, eight-point experiments, three independent experiments
pIC50: −log10 of the molar value.
measurement.kind: pIC50

NC1CCC(N[C@@H]2C[C@H]2c2ccccc2)CC1 (stereo partly drawn) [Compound 6, reference compound]: < 4.00
COc1ncccc1CN[C@H]1CC12CCc1ccccc12 (stereo in doubt) [Compound 22b]: < 4.00
COc1ncccc1CN[C@@H]1CC12CCc1ccccc12 (stereo in doubt) [Compound 22a]: < 4.00
